- system name: T1, hTNFSF9-His (monomeric human TNFSF9 extracellular domain with 9x-Histidine tag) (human, UniProt P41273 50-254)
- T1 construct: also called hTNFSF9-His protein; monomeric hTNFSF9-His antigen
- T1 sequence (P41273 other isoform, or with tags, fused parts or gaps): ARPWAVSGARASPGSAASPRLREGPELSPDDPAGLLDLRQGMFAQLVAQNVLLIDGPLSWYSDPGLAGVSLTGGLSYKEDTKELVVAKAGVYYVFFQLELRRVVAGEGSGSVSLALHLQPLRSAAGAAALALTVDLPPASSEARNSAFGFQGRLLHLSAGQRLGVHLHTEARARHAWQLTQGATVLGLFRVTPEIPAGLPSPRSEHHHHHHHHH
- assay info: SPR (Biacore)
endpoint label: pKd
Formally, pKd is defined as -log10 of the concentration c, with c in mol/L.

get_value(item= SC113.46 (antibody, V domains shown, mouse antibody, isotype N/A) VH: QIQLVQSGPELKKPGETVKISCKASGYSFTNYGMNWVKQTPRKGLKWVGWINTYTGETTYADDFKGRFAFSLETSASTAYLQINNLKNEDMATYFCARIYGYGWFAYWGQGTLVTVSA VL: DIQMTQSPSSLSASLGERVSLTCRASQEISGYLSWLQQKPDGTIKRLIYAASTLDSGAPKRFSGSRSGSDYSLIISSLESEDFADYYCLQYSSYPYTFGGGTKLEIK , readout=pKd) returns 8.40
